# System: MCF7
# experiment.notes: Cytotoxicity against human MCF7 cells
# Format: functional, cell-based
Give IC50 for every item shown.
// return numeric value only (unit: nM, not printed)

Reported IC50 ( C=C/C=C\[C@H](C)[C@H](OC(N)=O)[C@@H](C)[C@H](O)[C@@H](C)CC(=C)[C@H]1[C@H](C)[C@@H](O)[C@@H](C)[C@@H]1/C=C/C[C@@H]1OC(=O)[C@H](C)[C@@H](O)[C@H]1C ) = 130

Reported IC50 ( C=C/C=C\[C@H](C)[C@H](OC(N)=O)[C@@H](C)[C@H](O)[C@@H](C)C/C(C)=C\[C@H](C)[C@@H](O)[C@@H](C)/C=C\[C@@H](O)C[C@@H]1OC(=O)[C@H](C)[C@@H](O[Si](C)(C)C(C)(C)C)[C@H]1C ) = 960

###

# Tested on: MCF7
# experiment.notes: Cytotoxicity against human MCF7 cells
# Format: functional, cell-based
Give log10 IC50 for every item shown.
Hello, just confirming the data are log10 of IC50 with units of nM.

Reported log10 IC50 ( C=C/C=C\[C@H](C)[C@H](OC(N)=O)[C@@H](C)[C@H](O)[C@@H](C)C/C(C)=C\[C@H](C)[C@@H](O)[C@@H](C)/C=C\[C@@H](O)C[C@@H]1OC(=O)[C@H](C)[C@@H](O)[C@H]1C [DISERMOLIDE] ) = 0.38

Reported log10 IC50 ( C=C/C=C\[C@H](C)[C@H](OC(N)=O)[C@@H](C)[C@H](O)[C@H](C)C[C@](C)(O)[C@H]1[C@H](C)[C@@H](O)[C@@H](C)[C@@H]1/C=C/C[C@@H]1OC(=O)[C@H](C)[C@@H](O)[C@H]1C (relative stereo) ) = 3.87

Reported log10 IC50 ( C=C/C=C\[C@H](C)[C@H](OC(N)=O)[C@@H](C)[C@H](O)[C@@H](C)C/C(C)=C\[C@H](C)[C@H]1O[C@H](C[C@@H]2OC(=O)[C@H](C)[C@@H](O)[C@H]2C)C=C[C@@H]1C ) = 3.26

Reported log10 IC50 ( C=C/C=C\[C@H](C)[C@H](OC(N)=O)[C@@H](C)[C@H](O)[C@@H](C)/C=C(\C)[C@H]1[C@H](C)[C@@H](O)[C@@H](C)[C@@H]1/C=C/C[C@@H]1OC(=O)[C@H](C)[C@@H](O)[C@H]1C ) = 3.32

Reported log10 IC50 ( C=C/C=C\[C@H](C)[C@H](OC(N)=O)[C@@H](C)[C@H](O)[C@@H](C)C[C@@](C)(O)[C@H]1[C@H](C)[C@@H](O)[C@@H](C)[C@@H]1/C=C/C[C@@H]1OC(=O)[C@H](C)[C@@H](O)[C@H]1C (mixture of isomers) ) = 3.37

Reported log10 IC50 ( C=C/C=C\[C@H](C)[C@H](OC(N)=O)[C@@H](C)[C@H](O)[C@@H](C)C[C@](C)(O)[C@H]1[C@H](C)[C@@H](O)[C@@H](C)[C@@H]1/C=C/C[C@@H]1OC(=O)[C@H](C)[C@@H](O)[C@H]1C (relative stereo) ) = 3.24
